Measured values drawn from ChEMBL document CHEMBL4842348 for this set.

Listed here: items and their measured clearance.
test-details: Total clearance in C57BL/6 mouse in whole blood at 1 mg/kg, iv
Assay type: ADME, organism-based
Write the value in mL/min/kg as a bare number.

Cc1cc(C(=O)O)ccc1-c1ccc(Cl)c(-c2ccc(C(F)(F)F)cc2CN2C(=O)O[C@H](c3cc(C(F)(F)F)cc(C(F)(F)F)c3)[C@@H]2C)c1    5.6

Quick note, clearance for `COc1ccc(C(C)C)cc1-c1ccc(C(F)(F)F)cc1CN1C(=O)O[C@H](c2cc(C(F)(F)F)cc(C(F)(F)F)c2)[C@@H]1C` landed at 19

For `COc1ccc(-c2ccc(C(=O)O)cc2C)cc1-c1ccc(C(F)(F)F)cc1CN1C(=O)O[C@H](c2cc(C(F)(F)F)cc(C(F)(F)F)c2)[C@@H]1C` the compound record lists clearance as 18
